Target: T1, ECF25_1645
T1 chain: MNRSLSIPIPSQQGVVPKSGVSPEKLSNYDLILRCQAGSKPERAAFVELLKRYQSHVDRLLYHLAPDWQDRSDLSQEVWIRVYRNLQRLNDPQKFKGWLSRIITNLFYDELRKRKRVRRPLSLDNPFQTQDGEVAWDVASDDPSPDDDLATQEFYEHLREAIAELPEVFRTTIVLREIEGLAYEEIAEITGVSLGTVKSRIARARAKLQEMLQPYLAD
Can you tell me fold repression for the items I'm about to list?

-- ask Complete the entry with fold repression for AS04_1609 (protein) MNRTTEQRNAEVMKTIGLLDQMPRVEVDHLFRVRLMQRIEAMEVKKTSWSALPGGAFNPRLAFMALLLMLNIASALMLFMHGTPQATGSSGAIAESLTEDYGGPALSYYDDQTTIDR
-- reply 1.06

-- ask Complete the entry with fold repression for AS03_1244 (protein) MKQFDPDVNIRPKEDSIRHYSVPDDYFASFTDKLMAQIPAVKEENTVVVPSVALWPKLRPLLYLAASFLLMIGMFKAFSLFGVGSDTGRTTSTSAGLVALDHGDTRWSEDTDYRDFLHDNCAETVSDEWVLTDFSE
-- reply 1.37

-- ask Complete the entry with fold repression for AS31_34 (protein) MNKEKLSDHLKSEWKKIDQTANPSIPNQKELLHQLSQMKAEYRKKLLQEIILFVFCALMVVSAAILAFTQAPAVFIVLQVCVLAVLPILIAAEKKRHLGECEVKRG
-- reply 1.99

-- ask Complete the entry with fold repression for AS37_2513 (protein) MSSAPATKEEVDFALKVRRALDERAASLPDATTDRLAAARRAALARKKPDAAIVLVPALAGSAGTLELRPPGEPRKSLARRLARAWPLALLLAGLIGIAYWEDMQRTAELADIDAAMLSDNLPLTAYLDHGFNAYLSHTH
-- reply 3.92

-- ask Complete the entry with fold repression for AS15_524 (protein) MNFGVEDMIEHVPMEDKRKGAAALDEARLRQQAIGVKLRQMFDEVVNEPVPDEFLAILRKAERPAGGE
-- reply 3.69

-- ask Complete the entry with fold repression for AS15_436 (protein) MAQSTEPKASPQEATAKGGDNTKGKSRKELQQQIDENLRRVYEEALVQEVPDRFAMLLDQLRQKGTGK
-- reply 1.87

-- ask Complete the entry with fold repression for AS03_1198 (protein) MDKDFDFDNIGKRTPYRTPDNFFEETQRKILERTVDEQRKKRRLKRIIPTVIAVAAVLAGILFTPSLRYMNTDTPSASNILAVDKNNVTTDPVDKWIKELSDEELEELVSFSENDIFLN
-- reply 0.816

-- ask Complete the entry with fold repression for AS22_1147 (protein) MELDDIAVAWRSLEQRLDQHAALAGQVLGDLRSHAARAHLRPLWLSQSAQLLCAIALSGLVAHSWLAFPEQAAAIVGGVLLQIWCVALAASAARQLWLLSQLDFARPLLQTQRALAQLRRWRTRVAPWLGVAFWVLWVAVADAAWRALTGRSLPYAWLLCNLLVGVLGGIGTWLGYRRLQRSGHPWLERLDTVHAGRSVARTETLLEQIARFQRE
-- reply 2.27
